Entry source: PubChem BioAssay

Protocol details: RAM signaling pathway blockade in yeast – S. cerevisiae, Pdr1DBD-CYC8 efflux-inhibited sensitized strain, primary screen (AID 1298);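 note: 0% = DMSO untreated cells without growth and 100% = 10 µM 1-NA-PP1 full growth; higher means more yeast growth rescued from 5-FOA killing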
Test conditions: S. cerevisiae cbk1-as DSE1-URA3 strain, 5-FOA growth OD615, 2 d; at 50 µM; stronger effect = higher value
Each entry below lists one item and its recorded RAM network inhibition value.
Hi! Could you send only the number? It should be in %, unit omitted.

Observe how each entry below is paired with its result.
Smiles	Measure	Unit name	Reported result
COc1ccc(S(=O)(=O)N2CCC(C(=O)Nc3c(F)cccc3F)CC2)cc1	RAM network inhibition	%	3.07
COc1ccc(OCCSc2nc3ccccc3n2CC(=O)O)cc1	RAM network inhibition	%	4.44
Cc1ccc(-c2nc3cc(NC(=O)C(C)C)ccc3o2)cc1	RAM network inhibition	%	5.12

What value of RAM network inhibition has been recorded for this entry: Nc1cc(N)cc(-c2nc3ccccc3o2)c1
0.61

Can you handle O=C(O)c1ccc(NS(=O)(=O)c2cc(Cl)ccc2Cl)cc1 next?
4.43

Can you handle Cc1cc(/C=N/n2cnnc2)c(C)n1-c1cccc(Cl)c1 next?
2.81

---

Protocol details: MRP1 drug-resistance reversers in H69AR cells – cell-based, doxorubicin co-treatment, pilot screen (AID 601)
Test conditions: H69AR cells, CellTiter-Glo, 72 h; compound alone cytotoxicity; at 10 µM
Each entry below lists one item and its recorded viability value.
Kindly format the answer as number then unit.

Observe how each entry below is paired with its result.
Compound	viability
CCOc1ccc(N(CC(=O)Nc2ccc(F)c(F)c2)S(=O)(=O)c2c(C)noc2C)cc1	65.8%
CCOC(=O)Nc1c(O)ccc2oc(C)c(-c3ccccc3)c12	99.8%
CCOC(=O)CN1C(=O)C(=O)c2cccc(C)c21	76%
CCN(CC)C(=O)C1CCCN(c2ncnc3c2cnn3-c2ccc(Cl)cc2)C1 (stereo unspecified)	86.1%
CN1C(=O)C(O)(CC(=O)c2ccccc2O)c2cc(Br)ccc21 (stereo unspecified)	27%
CN(C)C(=O)N1CCN(C(=O)c2ccco2)CC1	101%

What value of viability has been recorded for this entry: CCc1ccc(N(CC(=O)NC2CCCC2)S(=O)(=O)c2c(C)noc2C)cc1
84%

Can you handle CCOC(=O)N1CCC(N2C(=O)c3ccccc3C2Nc2cc(Cl)c(OC)cc2OC)CC1 (stereo unspecified) next?
78.2%

Can you handle CCOC(=O)c1cc2c(=O)n3ccccc3nc2n(CCCOC)c1=NC(C)=O next?
94.2%

Can you handle Cc1ccc(CCP(=O)(O)CN2CCOCC2)cn1 next?
104%

Can you handle CCN1C(=O)c2ccccc2S(=O)c2ccc(C(=O)NC3CC3)cc21 (stereo unspecified) next?
105%

---

Each entry below lists one item and its recorded viability value.
Protocol details: Her2 expression decrease, cell viability multiplex – SKBR3 breast tumor cells, AlphaScreen, ATP viability, primary screen (AID 461);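 note: percent of carrier control wells set as 100% viability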
Test conditions: SKBR3 Her2 protein level, 18-24 h, measured here: SKBR3 viability, ATP luminescence, at 10 µM
Hi! Could you send only the number? It should be in %, unit omitted.

Molecule	Unit name	viability
CCOC(=O)C1CCN(C(=O)CN(c2ccc(Cl)c(C(F)(F)F)c2)S(C)(=O)=O)CC1	%	112

Moving on to another molecule below.
What value of viability has been recorded for this entry: COc1ccc(C2CC(c3ccc(C)cc3)Nc3ncnn32)cc1 (stereo unspecified)
106

---

Protocol details: S. cerevisiae growth inhibition in restrictive medium, OD615, pilot screen, restrictive growth control, yeast lifespan reduction project (AID 706);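 note: modified DeaD lifespan yeast strain shifted to restrictive glucose medium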
Test conditions: OD615, 48 h, at 10 µM, stronger effect = higher value
Measure: growth inhibition (%)
Hi! Could you send only the number? It should be in %, unit omitted.

Compound	Unit name	growth inhibition
CCN1CCN(C(=O)c2oc(=O)c3ccccc3c2-c2ccc(C)cc2)CC1	%	-6.39
O=C(CCNS(=O)(=O)c1cccc2nsnc12)Nc1ccc2c(c1)OCCO2	%	-0.065
COc1ccc(C/C(N)=N/n2cnnc2)cc1Cl	%	-12

What value of growth inhibition has been recorded for this entry: O=C(COc1ccc(F)cc1)Nc1ccc(-n2cnnn2)cc1
2.31

Can you handle CCOCCCNC(=O)c1ccc2c(c1)N(Cc1ccccc1)C(=O)CS2=O (stereo unspecified) next?
6.05

Can you handle CC1CCCCN1C(=O)c1ccc(S(=O)(=O)N2CCCCC2C)cc1 (stereo unspecified) next?
-15.2

Can you handle COc1ccc(NC(=O)C2Cc3ccccc3C(=O)O2)cc1 (stereo unspecified) next?
1.67

Can you handle COc1ccc(C2CC(c3cccc(Cl)c3)n3nc(N)nc3N2)cc1 (stereo unspecified) next?
-3.25

Can you handle Cc1ccc(C(=O)N2CCN(c3ccccc3)CC2)cc1C next?
8.08

Can you handle Clc1cc(Br)ccc1OCCOCCN1CCOCC1 next?
2.38

Can you handle CC(=O)c1ccc(NC(=O)CSc2nnc(Cc3cccn3C)n2-c2ccc(F)cc2)cc1 next?
12.5

---

Protocol details: MRP1 drug-resistance reversers in H69AR cells – cell-based, doxorubicin co-treatment, pilot screen (AID 601)
Test conditions: H69AR cells + 2 uM doxorubicin, CellTiter-Glo, 72 h; measured here: viability with 2 uM doxorubicin; at 10 µM; stronger effect = lower value
Decision: viability beneath 80% gives T; viability meeting or exceeding 80% gives F.

Sample answers from the record:
Compound	Group label
CC(NC(=O)c1noc2c1CCCCC2)c1ccccc1 (stereo unspecified)	F
c1ccc2c(c1)nc(NCCN1CCOCC1)c1nncn12	F
CSC1=N/C(=C\C=C\c2cccs2)C(=O)S1	T
CCOC(=O)c1[nH]c(C)c(C(=O)Nc2ccc(C)cc2C)c1C	T

Consider CC1=C(C(N)=O)C(c2ccncc2)n2nc(-c3ccccc3Cl)nc2N1 (stereo unspecified) . Does its viability lie strictly below 80%?
F

---

Protocol details: RAM signaling pathway blockade in yeast – S. cerevisiae, Pdr1DBD-CYC8 efflux-inhibited sensitized strain, primary screen (AID 1298);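 note: 0% = DMSO untreated cells without growth and 100% = 10 µM 1-NA-PP1 full growth; higher means more yeast growth rescued from 5-FOA killing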
Test conditions: S. cerevisiae cbk1-as DSE1-URA3 strain, 5-FOA growth OD615, 2 d; at 50 µM; stronger effect = higher value
Measure: RAM network inhibition (%)
Hi! Could you send only the number? It should be in %, unit omitted.

Observe how each entry below is paired with its result.
Compound	RAM network inhibition [%]
COc1ccc(CCNc2oc(COc3ccccc3Cl)nc2C#N)cc1OC	2.3
CCSc1nc2c(c(=O)[nH]1)C(c1cccnc1)C(C(=O)OC(C)C)=C(C)N2 (configuration not stated)	0.72
CCOC(=O)N1CCN(CC(=O)Nc2ccc(C)cc2)CC1	-0.15
CCC(C)Sc1nc2c(cnn2-c2ccc(C)cc2)c(=O)[nH]1 (configuration not stated)	0.41
COc1ccc(-n2c(Cc3cccn3C)nnc2SCC(=O)Nc2cccc(Cl)c2)cc1	11

What value of RAM network inhibition has been recorded for this entry: OCc1cn(-c2ccccc2)nc1-c1ccc(-c2nn(-c3ccccc3)cc2CO)cc1
5.84

Can you handle Cc1ccc(C2CC(=O)NC(SCc3ccccc3)=C2C#N)o1 (configuration not stated) next?
0.58

Can you handle O=C(NCCc1c[nH]c2ccccc12)c1cnc2n(c1=O)CCS2 next?
6.77

---

Protocol details: H69AR cell proliferation blockers – human, duplicate replicates, primary screen (AID 580);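 note: 100% = mean luminescence of untreated wells and 0% = no signal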
Test conditions: H69AR lung tumor cells viability, ATP luminescence, 72 h; at 10 µM
The source made the active and inactive calls.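 How the source made its calls: active means viability at or under a set limit in both replicates, limit being median viability minus 3 SD (cut at about 48% in these data, passing the limit was not always enough); inconclusive means at or under the limit in just one replicate; inactive means at or above the limit in both replicates.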
The categories you may choose from are label 1 (active), label 0 (inactive)

Sample answers from the record:
Compound	Group label
CN(C1CCCCC1)S(=O)(=O)c1ccc(S(=O)(=O)N2CCN(CCC#N)CC2)cc1	label 0
CCOC(=O)N1CCC(NC(=O)c2cc(C(=O)NC3CCCC3)ccc2CO)CC1	label 0
Cc1ccc(Cn2c(=O)c3ccccc3n3c(CCC(=O)O)nnc23)cc1	label 0
COc1ccc(C2C(C#N)=C(C)NC3=C2C(=O)CC(C)(C)C3)c(OC)c1 (configuration not stated)	label 0
O=C(Nc1nc(-c2ccccn2)cs1)C1CC1	label 0

We next turn to a different compound, shown below.
What is the recorded call for this compound in the test? CCCN1CCN(CCCNC(=O)Cn2ncc3c4ccccc4n(C)c3c2=O)CC1
label 0

---

Protocol details: Her2 expression decrease, cell viability multiplex – SKBR3 breast tumor cells, AlphaScreen, ATP viability, primary screen (AID 461);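 note: percent of carrier control wells set as 100% viability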
Test conditions: SKBR3 Her2 protein level, 18-24 h, measured here: SKBR3 viability, ATP luminescence, at 10 µM
Measure: viability (%)
Hi! Could you send only the number? It should be in %, unit omitted.

Compound	Reported result
COc1cc(/C=N/n2cnnc2)ccc1OCC(=O)N1CCOCC1	84
COc1ccc(/C=N/O)cc1COc1ccc(NC(C)=O)cc1	115
CN(C)C(=O)N1CCN(C(=O)c2ccco2)CC1	116
Clc1ss/c(=N\c2ccccn2)c1Cl	100
O=C(Nc1ccc2c(c1)OCO2)c1ccc(CN2CCOCC2)cc1	97.5

Moving on to another compound below.
What value of viability has been recorded for this entry: COc1ccc(C2CC(c3cccc(C)c3)n3ncnc3N2)cc1 (stereo unspecified)
87.5
